// provenance: patent US11780849B2

# assayedSystem: ENPP1 on MDA-MB-231 cells (Homo sapiens (Human))
# measurementDescription: Assay 3: inhibition of ENPP1 hydrolysis of AMP p-nitrophenyl ester on MDA-MB-231 cells
measuredEndpoint: Ki (nM)
Use nM as the unit, but write only the number.

q: What is its Ki for ENPP1 on MDA-MB-231 cells (Homo sapiens (Human))? Entry: COc1cc2ncnc(N3CCC4(CC3)CCN(S(C)(=N)=O)C4)c2cc1F (stereo not shown)
a: 1.1

q: Notebook entry, ENPP1 on MDA-MB-231 cells (Homo sapiens (Human)) assay: Ki of COc1cc2nc(C)nc(N3CCC4(CC3)CCN(S(C)(=N)=O)C4)c2cc1OC (stereo not shown) = ?
a: 2.8

q: Give ENPP1 on MDA-MB-231 cells (Homo sapiens (Human)) Ki for COc1cc2ncnc(-c3ccc4c(c3)CN(S(N)(=O)=O)CC4)c2cc1OC [reference compound]
a: 23

q: Hello, I am looking for reported Ki with ENPP1 on MDA-MB-231 cells (Homo sapiens (Human)) for COc1cc2nccc(N3CC4(CC(CS(C)(=N)=O)C4)C3)c2cc1OC (stereo not shown) . Could you help?
a: 17

###

# assayedSystem: ENPP-1 ECD (Homo sapiens (Human))
# measurementDescription: Assay 2: inhibition of ENPP1 hydrolysis of 2′,3′-cGAMP (AMP-Glo, […] enzyme)
# conditionsUsed: Assay 2 (KI), inhibition of ENPP1 hydrolysis of 2′,3′-cGAMP; no unit in Table 18 (Table 17 legend for this assay uses nM)
measuredEndpoint: Ki (nM)
The response must be a number in nM with no trailing unit.

q: Need Ki, item COc1cc2ncnc(N3CCC(CS(C)(=N)=O)CC3)c2cc1OC (centres unmarked)
a: 9.9

q: Suppose we examine the compound COc1cc2nncc(N3CCC(CCS(C)(=N)=O)CC3)c2cc1OC (centres unmarked) ; what Ki value has been reported?
a: 0.57

q: Quick one: Ki of COc1cc2nccc(Oc3ccc(S(C)(=N)=O)cc3F)c2cc1OC (centres unmarked) ?
a: 25

q: Would you mind telling me what Ki value was observed for CS(=N)(=O)CCC1CCN(c2ccnc3ccccc23)CC1 (centres unmarked) ?
a: 410

q: Name the reported Ki value associated with the compound COc1cccc2c(N3CCC(O)(CS(=N)(=O)C4CC4)CC3)ncnc12 (centres unmarked)
a: 0.023

###

# assayedSystem: ENPP-1 ECD (Homo sapiens (Human), UniProt P22413)
# measurementDescription: Assay 1: inhibition of ENPP1 hydrolysis of 2′,3′-cGAMP (AMP-Glo, […] enzyme)
# conditionsUsed: read-out: Assay 1 (IC50); ENPP1 hydrolysis of 2′,3′-cGAMP, AMP-Glo
measuredEndpoint: IC50

q: What measured IC50 goes with COc1cc2nccc(Oc3ccc([S@](=N)(=O)C4CC4)cc3)c2cc1F [Compound 120b] ?
a: 0.01 to 1 µM

q: State the recorded IC50 for this entry: COc1ccc2c(OCc3cccc([S@@](C)(=N)=O)c3)ccnc2c1 [Compound 133a]
a: < 0.01 µM

q: // query IC50 value for entry CS(=N)(=O)c1ccc(Oc2cnnc3ccccc23)cc1 (stereo not shown) [Compound 22]
a: > 1 µM

q: What value of IC50 has been reported for the following compound? COc1cc2ncc(C#N)c(Oc3ccc([S@@](C)(=N)=O)cc3)c2cc1F [Compound 44a]
a: 0.01 to 1 µM

q: Name the reported IC50 value associated with the compound COc1ccc2c(N3CCC4(CC3)CCN([S@@](C)(=N)=O)C4)ccnc2c1 [Compound 55b]
a: 0.01 to 1 µM

q: What IC50 value was documented for this compound, COc1cc2ncnc(N3CCC4(CC3)CCN([S@](C)(=N)=O)C4)c2cc1OC [Compound 54b] ?
a: < 0.01 µM

q: Fill in the blank: the reported IC50 of COc1cc2ncnc(N3CCC(CNS(C)(=N)=O)CC3)c2cc1OC (stereo not shown) [Compound 94] is ____.
a: < 0.01 µM

###

# assayedSystem: UniProt:P22413
# measurementDescription: Assay 1: inhibition of ENPP1 hydrolysis of 2′,3′-cGAMP (AMP-Glo, […] enzyme)
# conditionsUsed: Assay 1 (IC50), inhibition of ENPP1 hydrolysis of 2′,3′-cGAMP; no unit in Table 18 (Table 17 legend for this assay uses nM)
For each record, write down the corresponding IC50.
The reply should contain only the number, in nM.

q: What measured IC50 goes with COc1cc2nccc(OCc3ccc(S(C)(=N)=O)cc3)c2cc1F (centres unmarked) [Compound 136] ?
a: 2

q: Recorded IC50 of COc1cccc2c(Oc3ccc(S(C)(=N)=O)cc3)ccnc12 (centres unmarked) [Compound 118] , please.
a: 160

q: Fill in the blank: the reported IC50 of COc1cc2ncnc(-c3ccc(CCS(C)(=N)=O)cc3)c2cc1OC (centres unmarked) [Compound 153] is ____.
a: 54

q: Please report the recorded IC50 for COc1ccc2c(N3CCC4(CC3)CN(S(C)(=N)=O)C4)ccnc2c1 (centres unmarked) [Compound 53] .
a: 44

q: Please look up its IC50: COc1cc2nncc(Oc3ccc(S(C)(=N)=O)cc3)c2cc1OC (centres unmarked) [Compound 127]
a: 30

###

# assayedSystem: ENPP1 on MDA-MB-231 cells (Homo sapiens (Human), UniProt P22413)
# Sequence (P22413 whole entry): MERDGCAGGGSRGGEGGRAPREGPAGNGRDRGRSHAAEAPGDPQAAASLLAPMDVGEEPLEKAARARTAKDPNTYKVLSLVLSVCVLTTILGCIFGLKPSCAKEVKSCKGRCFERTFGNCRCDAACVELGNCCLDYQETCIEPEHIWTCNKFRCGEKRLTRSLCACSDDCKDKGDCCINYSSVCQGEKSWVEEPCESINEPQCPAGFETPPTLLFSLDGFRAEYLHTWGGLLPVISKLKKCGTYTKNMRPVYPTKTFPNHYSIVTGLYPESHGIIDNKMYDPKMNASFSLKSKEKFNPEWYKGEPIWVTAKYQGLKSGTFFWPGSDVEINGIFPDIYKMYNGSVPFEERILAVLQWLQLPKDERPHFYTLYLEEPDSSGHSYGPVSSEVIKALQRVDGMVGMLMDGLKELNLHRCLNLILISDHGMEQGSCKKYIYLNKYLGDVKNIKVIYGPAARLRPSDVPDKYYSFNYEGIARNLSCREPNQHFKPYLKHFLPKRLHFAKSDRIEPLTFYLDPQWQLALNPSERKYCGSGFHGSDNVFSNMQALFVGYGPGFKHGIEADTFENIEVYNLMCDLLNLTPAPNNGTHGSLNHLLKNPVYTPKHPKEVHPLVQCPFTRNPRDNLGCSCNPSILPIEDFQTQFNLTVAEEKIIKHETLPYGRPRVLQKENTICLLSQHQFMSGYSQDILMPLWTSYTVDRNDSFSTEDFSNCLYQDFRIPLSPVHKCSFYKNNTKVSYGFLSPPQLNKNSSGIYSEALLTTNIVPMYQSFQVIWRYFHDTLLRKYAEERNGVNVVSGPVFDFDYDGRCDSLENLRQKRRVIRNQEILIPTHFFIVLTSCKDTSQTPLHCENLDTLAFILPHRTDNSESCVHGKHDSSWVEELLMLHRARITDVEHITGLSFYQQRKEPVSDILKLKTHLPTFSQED
# measurementDescription: Assay 3: inhibition of ENPP1 hydrolysis of AMP p-nitrophenyl ester on MDA-MB-231 cells
pKi: −log10 of the molar value.
Entry flag: yes (1) if pKi reaches 8; no (0) if it does not.

q: For this compound, is measured pKi 8 or higher? COc1cccc2c(N3CCC(CCS(C)(=N)=O)CC3)c(C#N)cnc12 (stereo not drawn)
a: no (0)

q: Threshold query (pKi >= 8) on COc1ccc2c(Oc3ccc(S(=N)(=O)CC(C)(C)O)cc3)ccnc2c1 (stereo not drawn)
a: no (0)

q: Please tell me: is the compound COc1cc2ncc(C#N)c(N3CCC(CCS(C)(=N)=O)CC3)c2cc1F (stereo not drawn) at or over 8 in terms of pKi?
a: no (0)

q: Could you tell me if the measured pKi of COc1ccc2c(Oc3ccc(S(C)(=N)=O)cc3)ccnc2c1 (stereo not drawn) reaches 8 or more?
a: no (0)

q: hey, is pKi for this one >= 8? COc1cc2nccc(N3CCC4(CC3)CCN(S(C)(=N)=O)C4)c2cc1Cl (stereo not drawn)
a: yes (1)

q: Exam item: decide whether the reported pKi for COc1cc2ncnc(N3CCC4(CC3)CCN(S(=N)(=O)C3CC3)C4)c2cc1OC (stereo not drawn) is at least 8.
a: yes (1)

q: Is reported pKi greater than or equal to 8 here: COc1cc2nccc(N3CCC4(CC3)CCN(S(=N)(=O)C3CC3)C4)c2cc1F (stereo not drawn)
a: yes (1)

q: Could you please find out whether COc1cc2ncnc(N3CCC4(CCC(S(C)(=N)=O)C4)CC3)c2cc1OC (stereo not drawn) has pKi that meets 8 or exceeds it?
a: no (0)

q: Is pKi for COc1cc2nccc(N3CCC(CCS(C)(=N)=O)CC3)c2cc1F (stereo not drawn) at or above 8?
a: no (0)

q: pKi >= 8 for COc1ccc2c(Oc3ccc(S(C)(=N)=O)cc3)c(C#N)cnc2c1 (stereo not drawn) ?
a: no (0)

q: Record COc1cccc2c(N3CCC4(CC3)CN(S(C)(=N)=O)C4)ncnc12 (stereo not drawn) ; criterion: pKi no lower than 8. Met?
a: no (0)

q: Can COc1cc2ncnc(N3CCC4(CC3)CCN(S(C)(=N)=O)C4)c2cc1Cl (stereo not drawn) be said to have pKi at or above 8?
a: yes (1)

q: Could you please find out whether COc1cc2nccc(Oc3ccc(S(N)(=O)=O)cc3)c2cc1OC [reference compound] has pKi that meets 8 or exceeds it?
a: no (0)

q: Quick check: does COc1cc2ncnc(N3CCC4(CC3)CCN(S(C)(=N)=O)C4)c2cc1OC (stereo not drawn) have pKi greater than or equal to 8?
a: yes (1)

q: Is the recorded value of pKi equal to or greater than 8 for this compound? COc1ccc2c(Oc3ccc(S(C)(=N)=O)cc3F)ccnc2c1 (stereo not drawn)
a: no (0)

q: Decide: is the reported value of pKi for COc1cccc2c(N3CCC(O)(CS(=N)(=O)C4CC4)CC3)ncnc12 (stereo not drawn) equal to or greater than 8?
a: yes (1)

###

# assayedSystem: ENPP-1 ECD (Homo sapiens (Human))
# measurementDescription: Assay 2: inhibition of ENPP1 hydrolysis of 2′,3′-cGAMP (AMP-Glo, […] enzyme)
# conditionsUsed: Assay 2 (KI), inhibition of ENPP1 hydrolysis of 2′,3′-cGAMP; no unit in Table 18 (Table 17 legend for this assay uses nM)
measuredEndpoint: Ki (nM)
Express the result in nM but write the number alone.

q: # Ki lookup, item COc1cc2ncc(C#N)c(N3CCC(CCS(C)(=N)=O)CC3)c2cc1Cl (stereo not drawn)
a: 0.41

q: Can you share its Ki? I mean this compound: COc1ccc2c(Oc3ccc(S(C)(=N)=O)cc3)c(C#N)cnc2c1 (stereo not drawn)
a: 4.2

q: Consider the compound shown here: COc1cc2nccc(OCc3cccc(S(=N)(=O)C4CC4)c3)c2cc1F (stereo not drawn) What is its recorded Ki?
a: 0.018

q: Record request: Ki value, item COc1ccc2c(N3CCC4(CC3)CN(S(C)(=N)=O)C4)ccnc2c1 (stereo not drawn)
a: 4.6

q: Which Ki is listed for COc1cc2nccc(-c3ccc4c(c3)CN(S(C)(=N)=O)CC4)c2cc1OC (stereo not drawn) ?
a: 0.051

q: Can you look up the measured Ki of COc1cccc2c(N3CCC4(C3)CN(S(C)(=N)=O)C4)ncnc12 (stereo not drawn) for me?
a: 0.11

q: Give its Ki value. Item: COc1cccc2c(N3CCC(O)(CS(C)(=N)=O)CC3)ncnc12 (stereo not drawn)
a: 0.028

q: For the compound shown here, COc1ccc2c(N3CCC4(CC3)CCN(S(C)(=N)=O)C4)ccnc2n1 (stereo not drawn) , give the reported Ki.
a: 0.44

q: Data request, read-out Ki, for COc1cc2nncc(N3CCC4(CC3)CCN(S(=N)(=O)C3CC3)C4)c2cc1Cl (stereo not drawn)
a: 0.096
